test: Solubility of the compound in PBS buffer; assay type: physicochemical
Task for the reader: assign each of the following molecules its reported solubility.

Sample records with solubility:
| CHEMICAL_SMILES | solubility |
| --- | --- |
| COc1cc(C(F)(F)F)cc([C@H]2OC(=O)N(C(=O)NCc3cncc4cccnc34)[C@H]2CO)n1 | 94 µM |
| C[C@H]1[C@@H](c2cc(C(F)(F)F)cc(C(F)(F)F)c2)OC(=O)N1C(=O)Cc1cccc2ccccc12 | < 1 µM |

Please find the next molecule below.
# input Which solubility is reported for this molecule? COc1cc(C(F)(F)F)cc([C@H]2OC(=O)N(C(=O)NCc3cncc4cccnc34)[C@H]2C)n1
# output 32 µM
